- Experimental system: Cytochrome P450 2C19 (Homo sapiens) (UniProt P33261)
- Sequence (P33261 whole entry, looked up): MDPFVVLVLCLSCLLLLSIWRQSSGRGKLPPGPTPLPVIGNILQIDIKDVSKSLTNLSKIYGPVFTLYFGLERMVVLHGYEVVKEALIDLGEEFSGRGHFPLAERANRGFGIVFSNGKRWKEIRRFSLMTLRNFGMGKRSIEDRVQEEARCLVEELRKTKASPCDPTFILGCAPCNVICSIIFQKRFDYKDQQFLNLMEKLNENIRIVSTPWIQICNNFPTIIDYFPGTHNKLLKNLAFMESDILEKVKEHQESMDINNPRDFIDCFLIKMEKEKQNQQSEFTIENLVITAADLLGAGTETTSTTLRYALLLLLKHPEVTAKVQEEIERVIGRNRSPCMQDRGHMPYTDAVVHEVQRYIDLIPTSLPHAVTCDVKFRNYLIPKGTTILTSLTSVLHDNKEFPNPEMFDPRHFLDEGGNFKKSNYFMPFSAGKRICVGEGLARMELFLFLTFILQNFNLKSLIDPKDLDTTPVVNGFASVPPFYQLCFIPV
- Assay procedure: Cytochrome panel assay with activity outcomes
- Test context: recombinant CYP, pro-luciferin dealkylation, luminescence, p450-cyp2c19; series mostly up to 57.1 µM
About 5,800 (36%) of roughly 16,000 compounds were called active. Roughly 23% stayed inconclusive and do not appear here. The call rests on the fitted dose curve; in most records, active means well fitted curve in the direction sought with a large enough effect; inconclusive means small, poorly fitted or top-dose-only effect, or effect the other way; inactive means no such curve, though single readings can be large or run the other way. This is one part of the list.
Outcomes: active, inactive

{"Molecule": "COc1ccc2c(c1)c(CC(=O)O)c(C)n2Cc1ccc(Cl)cc1", "Experimental system": "Cytochrome P450 2C19 (Homo sapiens) (UniProt P33261)", "Class name": "active"}
{"Molecule": "Cc1c(CCO)c(=O)n(C)n1C(=O)c1ccc(F)cc1", "Experimental system": "Cytochrome P450 2C19 (Homo sapiens) (UniProt P33261)", "Class name": "active"}
{"Molecule": "CCOC(=O)c1c(C)[nH]c(C)c1C(=O)COC(=O)c1cccc(S(=O)(=O)N(CC)CC)c1", "Experimental system": "Cytochrome P450 2C19 (Homo sapiens) (UniProt P33261)", "Class name": "active"}
{"Molecule": "O=c1[nH]ccc2c(O)cccc12", "Experimental system": "Cytochrome P450 2C19 (Homo sapiens) (UniProt P33261)", "Class name": "inactive"}
{"Molecule": "Clc1ccc(Cl)c(Nc2ccnc(SCc3ccccc3)n2)c1", "Experimental system": "Cytochrome P450 2C19 (Homo sapiens) (UniProt P33261)", "Class name": "active"}
{"Molecule": "COCCn1c(=O)c(-c2cccc(C#N)c2)nc2cnc(N3CCNCC3)nc21", "Experimental system": "Cytochrome P450 2C19 (Homo sapiens) (UniProt P33261)", "Class name": "inactive"}
{"Molecule": "COc1ccc(-c2nc3cnc(Oc4cccc(Cl)c4)nc3n(C[C@H]3CCCO3)c2=O)cc1", "Experimental system": "Cytochrome P450 2C19 (Homo sapiens) (UniProt P33261)", "Class name": "inactive"}
{"Molecule": "Cn1cc(-c2nc3cnc(Oc4ccccc4)nc3n(CCC#N)c2=O)c2ccccc21", "Experimental system": "Cytochrome P450 2C19 (Homo sapiens) (UniProt P33261)", "Class name": "inactive"}
{"Molecule": "CCOC(=O)c1c(C)[nH]c(C)c1C(=O)COC(=O)c1ccc(S(=O)(=O)N(CC)CC)cc1", "Experimental system": "Cytochrome P450 2C19 (Homo sapiens) (UniProt P33261)", "Class name": "active"}
{"Molecule": "CCOC(=O)NC(NC(=O)OCC)C(=O)c1ccc(F)cc1", "Experimental system": "Cytochrome P450 2C19 (Homo sapiens) (UniProt P33261)", "Class name": "inactive"}
{"Molecule": "CCN(CC)CCOC(=O)c1ccc(N)cc1", "Experimental system": "Cytochrome P450 2C19 (Homo sapiens) (UniProt P33261)", "Class name": "inactive"}
{"Molecule": "O=C(c1ccccc1)C1CN(c2ccccc2)CC1c1ccc(Cl)cc1 (configuration not stated)", "Experimental system": "Cytochrome P450 2C19 (Homo sapiens) (UniProt P33261)", "Class name": "active"}
{"Molecule": "COc1ccc(NC(=O)c2ccc(-c3ccc(-c4noc(C)n4)cc3C)cc2)cc1OCCN(C)C", "Experimental system": "Cytochrome P450 2C19 (Homo sapiens) (UniProt P33261)", "Class name": "inactive"}
{"Molecule": "CN(C)c1ncc2nc(-c3ccc(Cl)cc3)c(=O)n(C[C@H]3CCCO3)c2n1", "Experimental system": "Cytochrome P450 2C19 (Homo sapiens) (UniProt P33261)", "Class name": "inactive"}
{"Molecule": "CCN(CC(=O)NCc1cccs1)S(=O)(=O)c1ccc(C(C)C)cc1", "Experimental system": "Cytochrome P450 2C19 (Homo sapiens) (UniProt P33261)", "Class name": "active"}
{"Molecule": "O=S(=O)(c1ccccc1)N1CCC2(CCN(Cc3ccccc3)CC2)CC1", "Experimental system": "Cytochrome P450 2C19 (Homo sapiens) (UniProt P33261)", "Class name": "inactive"}
{"Molecule": "COc1ccc(-c2noc(N(C)CC(=O)Nc3cccc(C(F)(F)F)c3)n2)cc1", "Experimental system": "Cytochrome P450 2C19 (Homo sapiens) (UniProt P33261)", "Class name": "active"}
{"Molecule": "O[C@H](CN1CCN(c2cccc(Cl)c2)CC1)C(c1ccccc1)c1ccccc1", "Experimental system": "Cytochrome P450 2C19 (Homo sapiens) (UniProt P33261)", "Class name": "inactive"}
{"Molecule": "COc1ccc2c(c1)c(CC(=O)OCC(=O)O)c(C)n2C(=O)c1ccc(Cl)cc1", "Experimental system": "Cytochrome P450 2C19 (Homo sapiens) (UniProt P33261)", "Class name": "inactive"}
{"Molecule": "N#CCCn1c(=O)c(-c2ccccc2)nc2cnc(Oc3cccc(Cl)c3)nc21", "Experimental system": "Cytochrome P450 2C19 (Homo sapiens) (UniProt P33261)", "Class name": "inactive"}
{"Molecule": "Cc1noc(C)c1C(=O)N1CCC2(CCN(Cc3ccncc3)CC2)CC1", "Experimental system": "Cytochrome P450 2C19 (Homo sapiens) (UniProt P33261)", "Class name": "inactive"}
{"Molecule": "Cc1ccc2c(c1)/C(=N/OC(=O)c1ccc(F)cc1)CCS2", "Experimental system": "Cytochrome P450 2C19 (Homo sapiens) (UniProt P33261)", "Class name": "inactive"}
